reported_endpoint: melting point

Reference set, count: 3
Quote melting point reported for "O=C1NCCc2ccc(OCCCCN3CCN(c4cccc5c4OCCC5)CC3)nc2N1" please.
154 to 156 °C

Write down melting point measured for item "OCc1nccc(N2CCCC2)n1"
114 to 116 °C

Determine from records and report melting point for "CCOC(=O)N(c1ccccc1[N+](=O)[O-])c1cccc(C)c1C"
71 to 73 °C

Consider the additional molecule presented here.
Answer with reported melting point of CCC(C)(C)NCC(O)c1ccc(O)c(O)c1OC (configuration not stated)
172 to 174 °C

---

Measured melting point, listed per entry.

Retrieve melting point measured for CCCCCc1ccc(-c2ccc(C3CCC(=O)O3)cc2)cc1 (single isomer, unassigned) and print it.
98.8 °C

State its melting point: "Oc1ccc2ccc(OCc3ccc4ccccc4n3)cc2c1"
218 to 220 °C

Next:
Quote melting point reported for "COc1ccc(F)cc1C(C)(C)CC(=O)C(=O)Nc1ccc2c(=O)onc(C)c2c1" please.
171 to 173 °C

Provide one value: measured melting point of CC(=O)OC1CC2(C)C(=O)CCC2C2CC=C3CC(O)CCC3(C)C12 (centres undefined)
155 to 156 °C

---

Reported values of melting point for individual entries

Worked cases, melting point given:
Provide one value: measured melting point of "CC(C)(c1ccccc1)n1nnc(-c2ccccc2-c2ccc(C3OCCCO3)cc2)n1"
102 to 106 °C

Indicate its recorded melting point; the compound in question is CNS(=O)(=O)c1ccc2c(c1)C=C(C(=O)O)C(C(F)(F)F)O2 (stereo not drawn)
208 to 209 °C

For the compound OCC(COc1noc2ccc(Cl)cc12)NC(c1ccccc1)(c1ccccc1)c1ccccc1 (stereo not drawn) , give its measured melting point value.
142 to 144 °C

Input CCCCCCCCCC(O)CCc1ccc(O)c(OC)c1 (stereo not drawn) , output reported melting point.
66 to 68 °C

Give melting point for the following compound: "O=C1c2c(O)cccc2C(O)(c2cccs2)c2cccc(O)c21"
191 to 192 °C

Note down melting point recorded for CN1CCN(C(=O)NC(CS)Cc2ccccc2)CC1 (single isomer, unassigned; (-))
68 to 70 °C

Please give measured melting point of the following entry: CCCOc1cc(C)c(NC(=O)C(C)Br)c(C)c1 (stereo not drawn)
148 °C

Next:
Could you please provide reported melting point for "CCCCCCCCCCCCCCCCCC(=O)N[C@H]1CCCNC(=O)C1" ? Thanks!
87 to 88 °C

---

Below, each entry is listed with its recorded melting point.

Please review the entries below; each comes with its answer.
Identify measured melting point corresponding to "OC1CCN(Cc2nc(-c3ccc4c(c3)Nc3ccccc3S4)cs2)CC1"
205 to 207 °C

For the molecule "Cc1csc2nc(Sc3ccccc3NC(=O)N[C@@H](Cc3ccc(NC(=O)c4c(Cl)cncc4Cl)cc3)C(=O)O)cnc12" , give its measured melting point value.
193 °C

Return the recorded melting point value; entry: "CNc1nc(-c2ccccc2)c(CCOC)c2ncnn12"
133 to 136 °C

Tell me melting point reported for "NNC(=O)c1cccc2nnsc12"
270 to 272 °C

Could you please provide reported melting point for "C=CCSc1ccc(OCc2ccccc2)nn1" ? Thanks!
56 to 58 °C

Others:
// Input: "CC(=O)OC/C=C/c1ccc(-c2ccccc2C)cc1" . Output its melting point only.
54 to 56 °C

In one line, give reported melting point of the entry Cc1c(C(=O)NC2C3(C)CCC(C3)C2(C)C)c2ccc(Cl)c(Cl)c2n1CCCNS(C)(=O)=O (stereo not given) .
150 to 154 °C

Identify measured melting point associated with N#Cc1ccc(CNC(=O)C2Cc3ccccc3N2S(=O)(=O)c2ccc(-c3cccc(C(F)(F)F)c3)cc2)cc1 (stereo not given)
80 to 89 °C

Identify melting point associated with the molecule COC(=O)C1=C2Nc3ccccc3C23CCN(Cc2ccccc2)C3CC1 (stereo not given)
58 to 60 °C

Dear colleague, please send me the reported melting point for "Cc1ccc(C2C(=O)NC(=O)NC2=O)cc1" when you can.
271 °C

---

Listing of recorded melting point by entry.

Here is how some molecules turned out for melting point.
Determine from records and report melting point for "CCc1cc2cc(F)ccc2[nH]1"
41 to 42 °C

Return melting point (reported value) for this molecule: O=C(CCCCc1ccccc1)N[C@H](Cc1ccc(C(F)(F)F)cc1)[C@@H](O)c1ccc(F)cc1 (racemic)
152 to 153 °C

Look up and state reported melting point for "CNC(=O)Nc1snc(N(C)C)c1C#N"
240 to 241 °C

Complete the entry with melting point for CC(=O)NC(CO)C(O)c1ccc(C=Cc2csc3ccccc23)s1 (stereo unspecified)
144 to 145 °C

Respond only with melting point recorded for "Cc1nn(-c2cc(OS(C)(=O)=O)c(Cl)cc2F)c(C)c1C"
123 to 125 °C

# return recorded melting point for input "CCc1ccc(S(=O)(=O)O)cc1"
45.1 to 46.5 °C

Continuing:
Retrieve melting point measured for "Cc1oc2cc(C(CC(=O)O)CC(=O)O)ccc2c1C" and print it.
190 to 192 °C

Answer with the recorded melting point of "c1ccc(Pc2ccccc2)cc1" only.
128 to 131 °C

For the molecule "C=CCN1CCN(c2nc3cccccc-3n2)CC1" , give its measured melting point value.
108 to 111 °C

Return the recorded melting point value; entry: "N#Cc1ccccc1N1CCc2ccccc21"
94 to 96.5 °C

Specify melting point for CC1=C(C(=O)NC(C)(C)C)C(c2ccccc2Cl)C(C(=O)OC(C)C)=C(COCCCc2nc3ccccc3n2C)N1 (stereo unspecified) and stop.
216 °C

Supply melting point value. Item: "Cn1nc(N)nc1NCCCCOc1cccc(CN2CCCCC2)c1"
82 to 82.5 °C

Please report the measured melting point for "COc1cn(-c2ccc(-n3nccc3O)cc2F)nc(-c2ccnn2-c2ccccc2)c1=O"
221 to 229 °C

---

Reported melting point values are given for each entry in this list.

Examples with their reported melting point follow.
Indicate the recorded melting point value for this compound: "COc1ccc(NC(=O)OCCCl)c(OC)c1NC(=O)OCCCl"
105 °C

Please give measured melting point of the following entry: CCCc1nc(C(C)(O)CC)c(C#N)n1C(c1ccccc1)(c1ccccc1)c1ccccc1 (stereo not drawn)
> 120 °C

State, in one line, measured melting point of "COc1ccc(-c2cc(C)nc3ccccc23)cc1"
101 °C

Note melting point for the compound shown: "CCOC(=O)c1nc2cc(I)c(I)cc2[nH]c1=O"
275 to 276 °C

Fill in reported melting point for this entry: NCC1Cc2cccc(Nc3cc(Cl)cc(Cl)c3)c2O1 (stereo not drawn)
> 250 °C

---
Fill in reported melting point for this entry: "CCOC(=O)Cc1cc(F)ccc1-c1ccccc1"
60.5 °C

---

Quick reference for melting point among some molecules

Give melting point for the following molecule: "CN(C)C(=O)c1ccc(-c2ccc(NC(=O)Nc3cccc(C(F)(F)F)c3)c(-c3n[nH]c(=O)[nH]3)c2)cc1"
212 °C

Identify measured melting point associated with "COc1ccc(C2=C(c3ccc(S(N)(=O)=O)cc3)CCC2)cc1Cl"
179 to 180 °C

---

Below, each entry is listed with its recorded melting point.

Worked set:
Return melting point (reported value) for this molecule: "CCCCCCCCCCCCCCCCS(=O)(=O)OC1CNC1"
91 to 97 °C

Identify the reported melting point for the following entry. CCCCOc1ccc(S(=O)(=O)N2CCC(OS(C)(=O)=O)C2)cc1 (stereo unspecified)
80 to 81 °C

Quote melting point reported for O=c1[nH]c(=O)n(C2CC(O)C(CO)O2)cc1C#CI (stereo unspecified) please.
135 to 137 °C

State, in one line, measured melting point of "COc1cc(COc2nn(-c3ccccc3)cc2/C=C/C(C)=O)ccc1OCc1nc(-c2ccco2)oc1C"
177 to 178 °C

Hello, please tell me recorded melting point for this one: "COc1ccc2c(c1OC)CCN(Cc1ccccc1)Cc1cc3c(cc1C=C2)OCO3"
129 to 132 °C

Quickly give me recorded melting point for C=CCC1CC(c2c[nH]c(-c3ccc(F)cc3)c2-c2ccncc2)=CCN1C (stereo unspecified)
178 to 180 °C

New cases:
Quote melting point reported for "COC(=O)C1=C(O)c2cc(Cl)sc2S(=O)(=O)N1" please.
173 to 174 °C

State its melting point: "CCOc1cc(-c2cc(C(F)F)n3ncc(C(=O)Nc4cccc(S(=O)(=O)NC5CC5)c4)c3n2)ccc1C(F)(F)F"
213 °C

Provide one value: measured melting point of "CN(C)Cc1cc(C(=O)c2ccccc2)cc(C(C)(C)C)c1O"
129 °C

Name the recorded melting point of the molecule listed here: "CCCCn1nc(SCCCCCC(=O)O)c(C(=O)O)c1Cc1cc2c(cc1Cl)OCO2"
70 °C

Write down melting point measured for item CS(=O)(=O)N1Cc2nc3c(N)nc4ccccc4c3n2CC(O)C1 (stereo unspecified)
282 to 283 °C

Given the molecule "COC(=O)c1ccc2c(c1)N(C)C(=O)c1cccnc1N2" , write its reported melting point.
273 to 276 °C

Quick one: give measured melting point for "CC1(C)CCc2cc(C#N)ccc2O1"
30 to 31 °C

Read the entry "O=C(O)C(Cc1cccc2c1CCCC2)Cc1cccc2c1CCCC2" and write its reported melting point.
144 to 146 °C

Note down melting point recorded for "CCON=C(C(C)=NOCc1ccccc1C(=NOC)C(=O)NC)c1ccc(Oc2ccc(Cl)cc2)cc1"
126 to 129 °C

Please look at this molecule and report its melting point: "CC(C)CNCc1cnc2[nH]c(-c3cc(OCc4ccccc4)ccc3OC(C)C)nc2c1"
101 to 103 °C

Just for reference, a melting point compilation (Tetko et al.; mined from patent text by program, amines drawn as free bases though some values may be those of a salt) is where these values come from.
